tested.target: OCT1 Phe244Ala variant (Homo sapiens, UniProt O15245, F244A)
method.summary: Uptake screening (transport ratio over empty vector), HEK293 cells overexpressing OCT1 Phe244Ala variant;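 further: stably transfected HEK293 cells, intracellular substrate quantified by HPLC-tandem mass spectrometry in cell lysates, uptake in HBSS+ buffer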
Assay type: cell-based
Design: expressed in transfected cells
Let's look at some molecules and their measured relative_Phe244Ala_uptake_in%.
Write the number in % without appending the unit.

molecule	measurement
CN(C)CCc1c[nH]c2ccc(C[C@H]3COC(=O)N3)cc12 [(S)-Zolmitriptan]	24.350
C[N+]1(C)[C@@H]2CC(OC(=O)C(O)(c3cccs3)c3cccs3)C[C@H]1[C@@H]1O[C@@H]12 (some centres unmarked) [Thiotropium]	101.472
CC[C@@H](CO)NCCN[C@@H](CC)CO [(R,R)-Ethambutol]	60.253
CC[C@H](CO)NCCN[C@@H](CC)CO [(R,S)-Ethambutol]	72.992
N=C(N)NC(=O)c1nc(Cl)c(N)nc1N [Amiloride]	61.492
CN(C)CCc1c[nH]c2ccc(C[C@@H]3COC(=O)N3)cc12 [(R)-Zolmitriptan]	37.478
CCN[C@@H](C)Cc1cccc(C(F)(F)F)c1 [(S)-Fenfluramine]	183.841
NC(=Nc1ccccc1)Nc1ccccc1 [Diphenylguanidine]	91.817

## Task Find the recorded relative_Phe244Ala_uptake_in% belonging to CC[C@@H](CO)NCCN[C@@H](CC)CO [(S,S)-Ethambutol] and report it.
## Result 49.465

## Task Return reported relative_Phe244Ala_uptake_in%; argument: CCC1(c2cccc(O)c2)CCCCN(C)C1 (centres unmarked) [Meptazinol]
## Result 119.786

## Task Could you tell me which relative_Phe244Ala_uptake_in% is on file for COc1ccc2[nH]cc(CCN)c2c1 [5-Methoxytryptamine] ?
## Result 22.030
